Could you please report measured viability, T/C for the items listed next?
- Test system: 354836-022-R-J1-PDC multicell spheroid viability;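 further: spheroids exposed to agents for seven days before the viability read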
- TEST_SUMMARY: Anticancer human tumor 354836-022-R-J1-PDC patient-derived head and neck squamous cell carcinoma cell line growth inhibition [PI3K]
- CONDITION_CONTEXT: second compound 0.01 µM; first compound 3.16 µM; active compounds read low
Use % as the unit, but write only the number.

Query :: Field: viability, T/C (354836-022-R-J1-PDC multicell spheroid viability). Entry: C#Cc1c(F)ccc2cc(O)cc(-c3ncc4c(N5CC6CCC(C5)N6)nc(OCC56CCCN5CC(F)C6)nc4c3F)c12 (stereo not given) + CC(Nc1ccc2c(c1)OCCn1cc(N3C(=O)OCC3C(F)F)nc1-2)C(N)=O
Result :: 103

Query :: Form: Entry = C#Cc1c(F)ccc2cc(O)cc(-c3ncc4c(N5CC6CCC(C5)N6)nc(OCC56CCCN5CC(F)C6)nc4c3F)c12 (stereo not given) + COc1c(OCCCN2CCOCC2)ccc2c3n(c(=NC(=O)c4cnc(N)nc4)nc12)CCN3 | System = 354836-022-R-J1-PDC multicell spheroid viability | viability, T/C = ____;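 further: spheroids exposed to agents for seven days before the viability read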
Result :: 92

Query :: Given the entry C=CC(=O)N1CCN(c2nc(=O)n(-c3c(C)ccnc3C(C)C)c3nc(-c4c(O)cccc4F)c(F)cc23)C(C)C1 (stereo not given) + CC(Nc1ccc2c(c1)OCCn1cc(N3C(=O)OCC3C(F)F)nc1-2)C(N)=O , what viability, T/C was observed with 354836-022-R-J1-PDC multicell spheroid viability?
Result :: 103

Query :: Missing value: viability, T/C, 354836-022-R-J1-PDC multicell spheroid viability, entry CCCS(=O)(=O)Nc1ccc(F)c(C(=O)c2c[nH]c3ncc(-c4ccc(Cl)cc4)cc23)c1F + COc1c(OCCCN2CCOCC2)ccc2c3n(c(=NC(=O)c4cnc(N)nc4)nc12)CCN3 . Fill in?
Result :: 86.4

Query :: Report viability, T/C for Cn1ncc(Cl)c1-c1cc(C(=O)NC(CN)Cc2cccc(F)c2)sc1Cl (stereo not given) + CC(Nc1ccc2c(c1)OCCn1cc(N3C(=O)OCC3C(F)F)nc1-2)C(N)=O tested on 354836-022-R-J1-PDC multicell spheroid viability.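 Further: spheroids exposed to agents for seven days before the viability read.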
Result :: 18.3
